- Tested on: KP1004 KPC-2
- experiment.summary: Aztreonam potentiation (MPC@4), strain KP1004 KPC-2
- test.parameters: minimum BLI concentration inhibiting growth with aztreonam 4 μg/mL; tested up to 40 μg/mL
readout: AZT MPC4 KPC-2 KP1004

Known AZT MPC4 KPC-2 KP1004 results, listed for orientation:
compound: O=C([O-])c1c(OCC#CCN2CCC2)ccc2c1O[B-](O)(O)CC2.[Na+].[Na+]
readout: AZT MPC4 KPC-2 KP1004
reported.measurement: X (X = MPC@4 ≤ 5 μg/mL)
--
compound: N#Cc1ccc2c(c1C(=O)[O-])O[B-](O)(O)CC2.[Na+].[Na+]
readout: AZT MPC4 KPC-2 KP1004
reported.measurement: Z (Z = MPC@4 > 20 μg/mL)
--
compound: COc1ccc2c(c1P(=O)(O)O)OB(O)CC2
readout: AZT MPC4 KPC-2 KP1004
reported.measurement: Z (Z = MPC@4 > 20 μg/mL)
--
compound: O=C([O-])c1c(CSC2CNC2)ccc2c1O[B-](O)(O)CC2.[Na+].[Na+]
readout: AZT MPC4 KPC-2 KP1004
reported.measurement: X (X = MPC@4 ≤ 5 μg/mL)

Query string: Dear colleague, I am looking for the recorded AZT MPC4 KPC-2 KP1004 of the following compound: C[C@H]1Cc2cccc(C(=O)O)c2O[B-]1(O)O
Result string: X (X = MPC@4 ≤ 5 μg/mL)

Query string: Same thing, different compound: O=C(O)c1c(F)ccc2c1OB(O)COC2
Result string: X (X = MPC@4 ≤ 5 μg/mL)

Query string: Same thing, different compound: CSCC(=O)NC1CB(O)Oc2c(C(=O)O)cccc21 (stereo not drawn)
Result string: X (X = MPC@4 ≤ 5 μg/mL)
